Values were extracted from paper PMC6155332.

Tested on: healthy mice
Assay: Host toxicity study in healthy mice
Assay type: in vivo
Conditions: healthy mice, 160 mg/kg/day × 3 days, orally
parameter: Host toxicity (toxic / non-toxic)

CN(CCCCCCCCNc1ccnc2ccccc12)Cc1ccc(-c2ccc(-c3ccc(C#N)cc3)s2)cc1
non-toxic
CC(CCCNCc1ccc(-c2csc3ccc(F)cc23)cc1)Nc1ccnc2cc(Cl)ccc12 (stereo not shown)
non-toxic
N#Cc1ccc(-c2ccc(-c3ccc(CNCCCCCCCCNc4ccnc5cc(Cl)ccc45)cc3)s2)cc1
non-toxic
Clc1ccc2c(NCCCNCc3csc4ccccc34)ccnc2c1
toxic

----------
System: HepG2 (hepatocellular carcinoma) cell line
Test: Compound toxicity in HepG2 cell line
Format: cell-based, human
Conditions: IC50 HepG2 / IC50 D6
parameter: SI HepG2/D6 (selectivity index)
Give bare numbers.

Observe how each entry below is paired with its result.
CC(CCCNCc1ccc(-c2csc3ccc(F)cc23)cc1)Nc1ccnc2ccccc12 (centres unmarked)
65
Fc1ccc2c(CNCCCNc3ccnc4ccccc34)csc2c1
211
N#Cc1ccc(-c2ccc(-c3ccc(CNCCCCCNc4ccnc5cc(Cl)ccc45)cc3)s2)cc1
84
Fc1ccc2scc(-c3ccc(CNCCCNc4ccnc5ccccc45)cc3)c2c1
136
N#Cc1ccc(-c2ccc(-c3ccc(CNCCCCCCCCNc4ccnc5cc(Cl)ccc45)cc3)s2)cc1
38

// each compound listed below needs its SI HepG2/D6 (selectivity index)
1. CC(CCCNCc1ccc(-c2csc3ccc(F)cc23)cc1)Nc1ccnc2cc(Cl)ccc12 (centres unmarked)
2. N#Cc1ccc(-c2ccc(-c3ccc(CNCCCCCCNc4ccnc5ccccc45)cc3)s2)cc1
3. N#Cc1ccc2c(-c3ccc(CNCCCCNc4ccnc5ccccc45)cc3)csc2c1

[reply]
1. 29
2. 40
3. 276

----------
Answer each item with its documented Mice survived in host toxicity study.
Test system: healthy mice
Assay: Host toxicity study in healthy mice
Format: in vivo
Settings: groups of 5 healthy mice, 160 mg/kg/day × 3 days
Answers are plain numbers.

CC(CCCNCc1ccc(-c2csc3ccc(F)cc23)cc1)Nc1ccnc2cc(Cl)ccc12 (stereo not shown)
5
N#Cc1ccc(-c2ccc(-c3ccc(CNCCCCCCCCNc4ccnc5cc(Cl)ccc45)cc3)s2)cc1
5

We next turn to a different compound, shown below.
For record CN(CCCCCCCCNc1ccnc2ccccc12)Cc1ccc(-c2ccc(-c3ccc(C#N)cc3)s2)cc1 the listed Mice survived in host toxicity study is 5

----------
Answer each item with its documented SI HepG2/D6 (selectivity index).
System: HepG2 (hepatocellular carcinoma) cell line
Test: Compound toxicity in HepG2 cell line
Format: cell-based, human
Conditions: IC50 HepG2 / IC50 D6
Numbers only.

N#Cc1ccc2scc(-c3ccc(CNCCCCCCNc4ccnc5ccccc45)cc3)c2c1
162
C#Cc1ccc(-c2ccc(-c3ccc(CNCCCCCCCCNc4ccnc5ccccc45)cc3)s2)cc1
52
CC(CCCNCc1ccc(-c2csc3ccc(C#N)cc23)cc1)Nc1ccnc2ccccc12 (centres unmarked)
192
N#Cc1ccc2scc(-c3ccc(CNCCCCNc4ccnc5ccccc45)cc3)c2c1
401
Fc1ccc2scc(-c3ccc(CNCCCCCCNc4ccnc5ccccc45)cc3)c2c1
37

// each compound listed below needs its SI HepG2/D6 (selectivity index)
1. N#Cc1ccc(-c2ccc(-c3ccc(CNCCCCCCNc4ccnc5cc(Cl)ccc45)cc3)s2)cc1
2. CC(CCCN(C)Cc1ccc(-c2csc3ccc(F)cc23)cc1)Nc1ccnc2ccccc12 (centres unmarked)
3. c1ccc2sc(CNCCCCNc3ccnc4ccccc34)cc2c1
4. N#Cc1ccc2c(-c3ccc(CNCCCCCCNc4ccnc5ccccc45)cc3)csc2c1
5. Fc1ccc2scc(CNCCCCNc3ccnc4ccccc34)c2c1

[reply]
89
173
339
37
172

// each compound listed below needs its SI HepG2/D6 (selectivity index)
1. c1ccc2sc(CNCCCNc3ccnc4ccccc34)cc2c1
2. CN(CCCCCCCCNc1ccnc2ccccc12)Cc1ccc(-c2ccc(-c3ccc(C#N)cc3)s2)cc1
3. N#Cc1ccc(-c2ccc(-c3ccc(CNCCCNc4ccnc5cc(Cl)ccc45)cc3)s2)cc1
4. N#Cc1ccc(-c2ccc(-c3ccc(CNCCCCNc4ccnc5ccccc45)cc3)s2)cc1

[reply]
1. 440
2. 367
3. 30
4. 2038
